- System: HeLa cervical cancer cells
- protocol-summary: In vitro growth inhibition, HeLa
- Assay type: cell-based
- condition-info: Homo sapiens
readout-label: IC50 (µM)
Number in µM, nothing else.

Qu. I would be grateful if you could share the reported IC50 for "O=C(/C=C/c1cccnc1)c1ccncc1" .
Ans. 24

====

- Tested on: Jurkat
- protocol-summary: Cancer cell proliferation, Alamar Blue assay 72 hours, Jurkat
- Format: cell-based
- condition-info: Homo sapiens, Jurkat, 72 h
readout-label: pIC50
A value of pIC50 is the negative decimal logarithm of a concentration given in moles per litre.

Guide cases for pIC50, answers given:
compound: O=C(/C=C/c1ccc2cccc(O)c2n1)c1cccnc1
pIC50: 5.51
//
compound: O=C(/C=C/c1cc(O)c2ccccc2n1)c1ccncc1
pIC50: 5.62
//
compound: O=C(/C=C/c1ccc2ccccc2n1)c1ccccc1
pIC50: 5.19
//
compound: Cc1ccc(C(=O)/C=C/c2ccc3cccc(O)c3n2)cc1
pIC50: 5.32
//
compound: O=C(/C=C/c1cccc2ncccc12)c1cccnc1
pIC50: 6.00

Qu. I would be grateful if you could share the reported pIC50 for NC(=O)c1ccc(C(=O)/C=C/c2ccc3ccccc3n2)cc1 [ACT-PFK-091, 4-(3-Quinolin-2-yl-acryloyl)-benzamide] .
Ans. 6.22

Qu. I would be grateful if you could share the reported pIC50 for "O=C(/C=C/c1ccc2ccccc2n1)c1cccnc1" .
Ans. 5.60
